// provenance: ChEMBL document CHEMBL1125672

system: Acanthocheilonema viteae; assay: anti-filarial Activity was measured against Acanthocheilonema viteae in jirds at 25 mg/kg/day(5 days) dose; assay type: functional
Flag rule - Suppression less than 40% flags Fulfilled; the remaining entries get Not fulfilled.

In plain terms, does C/C(=N\N=C(/S)Nc1ccccc1N)c1ccccc1 come in under 40% for Suppression?
Fulfilled

In plain terms, does C/C(=N\NC(S)=Nc1ccccc1N)c1ccccn1 come in under 40% for Suppression?
Not fulfilled

In plain terms, does C/C(=N\N=C(/S)Nc1ccc(N)cc1)c1ccccn1 come in under 40% for Suppression?
Fulfilled

In plain terms, does C/C(=N\NC(=S)N1CCCCCC1)c1ccccn1 come in under 40% for Suppression?
Not fulfilled

In plain terms, does C/C(=N\N=C(/S)NCCN)c1ccccn1 come in under 40% for Suppression?
Not fulfilled

In plain terms, does C/C(=N\N=C(/S)Nc1ccc(C)cc1N)c1ccccn1 come in under 40% for Suppression?
Not fulfilled

In plain terms, does C/C(=N\NC(=S)Nc1ccccc1)c1ccccn1 come in under 40% for Suppression?
Not fulfilled

In plain terms, does C/C(=N\NC(S)=Nc1ccccc1N)c1ccccn1.Cl.Cl come in under 40% for Suppression?
Not fulfilled

----------
system: Acanthocheilonema viteae; assay: anti-filarial Activity was measured against Acanthocheilonema viteae in jirds at 100 mg/kg/day(5 days) dose; assay type: functional
quantity_kind: Suppression (%)
Report the figure in % without appending any unit label.

The compound listed as C/C(=N\N=C(/S)N1CCN(c2ccc(Cl)cc2)CC1)c1ccccn1 has a reported Suppression of 85

The compound listed as C/C(=N\N=C(/S)Nc1ccccc1N)c1ccccc1 has a reported Suppression of 9

The compound listed as C/C(=N\NC(S)=Nc1ccccc1N)c1ccccn1 has a reported Suppression of 100

The compound listed as C/C(=N\N=C(/S)Nc1cccc(N)n1)c1ccccn1 has a reported Suppression of 14

The compound listed as C/C(=N\N=C(/S)Nc1cc2ccccc2cc1N)c1ccccn1 has a reported Suppression of 37

The compound listed as C/C(=N\N=C(/S)Nc1cccc(N)c1)c1ccccn1 has a reported Suppression of 43

The compound listed as C/C(=N\N=C(/S)Nc1ccc(N)cc1)c1ccccn1 has a reported Suppression of 34

The compound listed as C/C(=N\N=C(/S)Nc1ccc(C)cc1N)c1ccccn1 has a reported Suppression of 72

The compound listed as C/C(=N\N=C(/S)Nc1c(N)c2ccccc2c2ccccc12)c1ccccn1 has a reported Suppression of 23

The compound listed as C/C(=N\NC(S)=Nc1ccccc1N)c1ccccn1.Cl.Cl has a reported Suppression of 100
